Data origin, for the record: ChEMBL document CHEMBL1149175

- Procedure text: Volume distribution (steady state) of compound was determined in mouse
- Type: ADME, organism-based
- Assay conditions: in vivo, read-out: Vss
Measured quantity: Vd (L/kg)
The reply should contain only the number, in L/kg.

Any idea what its Vd is? The compound is CC(C)C[C@@H](NC(=N)N)C(=O)NCC(=O)N1CCC(c2cc(-c3ccc(OCc4ccc(C(=O)O)o4)c(Cl)c3Cl)nn2C)CC1 1.1

====

- System: Interleukin-2 (Homo sapiens, UniProt P60568)
- Sequence (P60568 whole entry): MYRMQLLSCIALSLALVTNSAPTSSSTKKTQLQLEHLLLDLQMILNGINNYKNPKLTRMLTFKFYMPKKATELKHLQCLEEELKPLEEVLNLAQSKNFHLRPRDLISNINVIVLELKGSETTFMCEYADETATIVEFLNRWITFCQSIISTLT
- Procedure text: Inhibition of mouse interleukin-2 alpha receptor by ELISA
- Assay conditions: target entry is the homologue from another species
Measured quantity: pIC50
Units for pIC50: none; it is -log10 of a concentration expressed in mol/L.

Query the reported pIC50 for Interleukin-2 (Homo sapiens, UniProt P60568); item: COC(=O)[C@H](Cc1ccc(C#Cc2ccccc2)cc1)NC(=O)CNC(=O)[C@H]1CCCN1C(=N)N 3.00

Hi! What's the reported pIC50 for COC(=O)[C@H](Cc1ccc(C#Cc2ccccc2)cc1)NC(=O)CNC(=O)[C@@H]1CCCN1C(=N)N on Interleukin-2 (Homo sapiens, UniProt P60568)? 3.14

What measured pIC50 is associated with COC(=O)[C@H](Cc1ccc(C#Cc2ccccc2)cc1)NC(=O)CNC(=O)[C@@H](N=C(N)N)C(C)(C)C on Interleukin-2 (Homo sapiens, UniProt P60568)? 5.05

I'm curious: which pIC50 was measured for COC(=O)[C@H](Cc1ccc(C#Cc2ccccc2)cc1)NC(=O)CNC(=O)[C@@H](CCC(N)=O)N=C(N)N tested on Interleukin-2 (Homo sapiens, UniProt P60568)? 3.05

Item CC[C@@H](C)[C@H](N=C(N)N)C(=O)NCC(=O)N[C@@H](Cc1ccc(C#Cc2ccccc2)cc1)C(=O)OC with Interleukin-2 (Homo sapiens, UniProt P60568) - pIC50? 4.59

Quick check: pIC50 on Interleukin-2 (Homo sapiens, UniProt P60568), item COC(=O)[C@H](Cc1ccc(C#Cc2ccccc2)cc1)NC(=O)CNC(=O)[C@H](C)N=C(N)N ? 3.55

Provide the documented pIC50 with Interleukin-2 (Homo sapiens, UniProt P60568) as the system for COC(=O)[C@H](Cc1ccc(C#Cc2ccccc2)cc1)NC(=O)CNC(=O)[C@H](N=C(N)N)C1CCCCC1 4.70

Form: Entry = COC(=O)[C@H](Cc1ccc(C#Cc2ccccc2)cc1)NC(=O)CNC(=O)[C@@H](N=C(N)N)C(C)C | System = Interleukin-2 (Homo sapiens, UniProt P60568) | pIC50 = ____ 4.10

Form entry - test system: Interleukin-2 (Homo sapiens, UniProt P60568); read-out: pIC50; molecule: COC(=O)[C@H](Cc1ccc(C#Cc2ccccc2)cc1)NC(=O)CNC(=O)[C@@H](CC1CCCCC1)N=C(N)N 4.43

API: value(readout=pIC50, system=Interleukin-2 (Homo sapiens, UniProt P60568)) for record COC(=O)[C@H](Cc1ccc(C#Cc2ccccc2)cc1)NC(=O)CNC(=O)CN(C)C(=N)N 2.92
